Test system: anaplastic large cell lymphoma cells (Karpas299)
Assay: In vitro potency (CellTiter-Glo, 96 h) on Karpas299
Assay type: cell-based
Details: Homo sapiens, KARPAS-299, 96 h, read-out: Karpas299 IC50
Method: In vitro potency was assessed on multiple cancer cell lines. All cell lines were authenticated by STR profiling at IDEXX Bioresearch and cultured for no more than 2 months after resuscitation. […] After 96 hours, growth inhibition was assessed by CellTiterGlo® (Promega, Madison, WI) and luminescence was measured on a plate reader. Cell viability was determined by CellTiter-Glo staining after 96h exposure to ADC. ND=Not Determined. […]
Parameter: IC50. Scope: all listed entries.
Report field: quantity (unit follows the number).

1) CC[C@@]1(O)C(=O)OCc2c1cc1n(c2=O)Cc2c-1nc1cc3c(cc1c2CNCCCNC)OCO3    8 nM
2) CC[C@@]1(O)C(=O)OCc2c1cc1n(c2=O)Cc2c-1nc1cc3c(cc1c2CNC1CCN(C)CC1)OCO3    8 nM

Next:
Consider the compound CC[C@@]1(O)C(=O)OCc2c1cc1n(c2=O)Cc2c-1nc1cc(F)c(C)c(C#N)c1c2CN . State its measured IC50.
7 nM

###

test system: Hodgkin's lymphoma cells (L540cy); experiment: In vitro potency (CellTiter-Glo, 96 h) on L540cy; type: cell-based; conditions: L540cy, 96 h, read-out: L540cy IC50
# note: boundary value 20 nM maps to -1; IC50 below it maps to 1

Please review the entries below; each comes with its answer.
1. C=C(C)c1c(C)c(F)cc2nc3c(c(CN)c12)Cn1c-3cc2c(c1=O)COC(=O)[C@]2(O)CC [Compound 2al]    1
2. CC[C@@]1(O)C(=O)OCc2c1cc1n(c2=O)Cc2c-1nc1cc3c(cc1c2CNCCCNC)OCO3 [Compound 8a]    1
3. CC[C@@]1(O)C(=O)OCc2c1cc1n(c2=O)Cc2c-1nc1cc3c(cc1c2CNC(C)=O)CCO3 [Compound 12]    1
4. CC[C@@]1(O)C(=O)OCc2c1cc1n(c2=O)Cc2c-1nc1cc3c(cc1c2CNC1CCNCC1)OCO3 [Compound 8e]    -1
5. CC[C@@]1(O)C(=O)OCc2c1cc1n(c2=O)Cc2c-1nc1cc3c(cc1c2CNC1CCOC1)OCO3 (stereo partly shown) [Compound 7ah]    1
6. CC[C@@]1(O)C(=O)OCc2c1cc1n(c2=O)Cc2c-1nc1cc3c(cc1c2CNC[C@@H](O)CN1CCCCC1)OCO3 [Compound 7z]    -1
7. CC[C@@]1(O)C(=O)OCc2c1cc1n(c2=O)Cc2c-1nc1cc3c(cc1c2Cn1cnc(CO)c1)OCO3 [Compound 7aj]    -1
8. CC[C@@]1(O)C(=O)OCc2c1cc1n(c2=O)Cc2c-1nc1cc3c(cc1c2CNC[C@H](O)CO)OCO3 [Compound 7n]    -1

# check: IC50 < 20 nM for CC[C@@]1(O)C(=O)OCc2c1cc1n(c2=O)Cc2c-1nc1cc3c(cc1c2CO)CCO3 [Compound 35]
1

Would you kindly verify if IC50 of CC[C@@]1(O)C(=O)OCc2c1cc1n(c2=O)Cc2c-1nc1cc3c(cc1c2CNCCCN1CCN(C)CC1)OCO3 [Compound 7h] is strictly less than 20 nM?
-1

###

tested on: anaplastic large cell lymphoma cells (DELBVR); assay: In vitro potency (CellTiter-Glo, 96 h) on DELBVR; type: cell-based; settings: 96 h, CPT free drugs; CellTiter-Glo after 96 h exposure; read-out: DELBVR IC50
Each entry below lists one item and its recorded pIC50 value.
Recall that pIC50 is obtained by taking minus log10 of the concentration measured in molar.

Please review the following examples before continuing.
1. CC[C@@]1(O)C(=O)OCc2c1cc1n(c2=O)Cc2c-1nc1cc(F)c(C)c(C3=CCCCC3)c1c2CN    8.30
2. CC[C@@]1(O)C(=O)OCc2c1cc1n(c2=O)Cc2c-1nc1cc(F)c(C)c(C3=CCOCC3)c1c2CN    8.15
3. CC[C@@]1(O)C(=O)OCc2c1cc1n(c2=O)Cc2c-1nc1cc3c(cc1c2CN)CCS3    8.30

Please list pIC50 recorded for the compound CC[C@@]1(O)C(=O)OCc2c1cc1n(c2=O)Cc2c-1nc1cc(F)cc(Br)c1c2CN
7.82

Read off the recorded pIC50 for C=Cc1ccc2nc3c(c(CN)c2c1)Cn1c-3cc2c(c1=O)COC(=O)[C@]2(O)CC
8.70

Fill in pIC50 for record CC[C@@]1(O)C(=O)OCc2c1cc1n(c2=O)Cc2c-1nc1cccc(OC)c1c2CN
8.00

For the compound CC[C@@]1(O)C(=O)OCc2c1cc1n(c2=O)Cc2c-1nc1cc(F)c(C)c(/C=C/c3ccc(OC)cc3)c1c2CN , report pIC50.
8.30

Given the compound CC[C@@]1(O)C(=O)OCc2c1cc1n(c2=O)Cc2c-1nc1cc3c(c(F)c1c2CN)CCC3 , write its reported pIC50.
7.82

Return pIC50 for the following compound: CC[C@@]1(O)C(=O)OCc2c1cc1n(c2=O)Cc2c-1nc1cc3c(cc1c2CN)CC=C3
8.40

Return pIC50 for the following compound: CC[C@@]1(O)C(=O)OCc2c1cc1n(c2=O)Cc2c-1nc1ccc3c(c1c2CN)SCC3
8.40

Provide pIC50 value for the following compound: CC[C@@]1(O)C(=O)OCc2c1cc1n(c2=O)Cc2c-1nc1cc(F)c(C)c(C3=CCN(C(C)=O)CC3)c1c2CN
7.96

###

IC50 for assorted compounds
system: breast cancer cells (MDA-MB-231); assay: In vitro potency (CellTiter-Glo, 96 h) on MDA-MB-231; assay type: cell-based; details: Homo sapiens, MDA-MB-231, 96 h, read-out: MDAMB 231 IC50
Your answer should be a plain number; it is taken to be in nM.

Some solved cases for reference:
1. CC[C@@]1(O)C(=O)OCc2c1cc1n(c2=O)Cc2c-1nc1cc3c(cc1c2CN)CCO3    8
2. CC[C@@]1(O)C(=O)OCc2c1cc1n(c2=O)Cc2c-1nc1cc(F)c(C)c(C=C(C)C)c1c2CN    7
3. C=C(C)c1c(C)c(F)cc2nc3c(c(CN)c12)Cn1c-3cc2c(c1=O)COC(=O)[C@]2(O)CC    9
4. CC[C@@]1(O)C(=O)OCc2c1cc1n(c2=O)Cc2c-1nc1cc3c(cc1c2CNC1CCOC1)OCO3 (some centres unmarked)    6

Please find the next compound below.
Give me measured IC50, please, for this compound: CC[C@@]1(O)C(=O)OCc2c1cc1n(c2=O)Cc2c-1nc1cc3c(cc1c2CNCCOC)OCO3
9

###

test system: anaplastic large cell lymphoma cells (DEL); assay: In vitro potency (CellTiter-Glo, 96 h) on DEL; type: cell-based; conditions: 96 h, read-out: DEL IC50
readout name: IC50 (nM)
Only the number, expressed in nM, is required.

Field: example entries. Status: answers known.
1. CC[C@@]1(O)C(=O)OCc2c1cc1n(c2=O)Cc2c-1nc1cc(F)c(C)c(Cl)c1c2CNC(=O)CN [Compound 13a]    0.3
2. CC[C@@]1(O)C(=O)OCc2c1cc1n(c2=O)Cc2c-1nc1cc3c(c(Br)c1c2CN)OCO3    0.3
3. CC[C@@]1(O)C(=O)OCc2c1cc1n(c2=O)Cc2c-1nc1cc3c(cc1c2CNC[C@H](O)CN1CCCCC1)OCO3    17

Supply IC50 value. Item: C=C(C)c1c(C)c(F)cc2nc3c(c(CN)c12)Cn1c-3cc2c(c1=O)COC(=O)[C@]2(O)CC
1

Complete the entry with IC50 for C=Cc1c(C)c(F)cc2nc3c(c(CN)c12)Cn1c-3cc2c(c1=O)COC(=O)[C@]2(O)CC
0.3

###

test system: Hodgkin's lymphoma cells (L540cy); assay: In vitro potency (CellTiter-Glo, 96 h) on L540cy; format: cell-based; details: L540cy, 96 h, read-out: L540cy IC50
readout name: IC50 (nM)
Numbers only; they are read as nM.

1) CC[C@@]1(O)C(=O)OCc2c1cc1n(c2=O)Cc2c-1nc1cc3c(cc1c2CN1CCC(N)CC1)OCO3    84
2) CC[C@@]1(O)C(=O)OCc2c1cc1n(c2=O)Cc2c-1nc1cc(F)c(C)c(C#N)c1c2CN    5
3) CCc1c(C)c(F)cc2nc3c(c(CN)c12)Cn1c-3cc2c(c1=O)COC(=O)[C@]2(O)CC    51
4) CC[C@@]1(O)C(=O)OCc2c1cc1n(c2=O)Cc2c-1nc1cc3c(cc1c2CNCCCN1CCNCC1)OCO3    6

// next item, IC50 requested
Find the measured IC50 of CC[C@@]1(O)C(=O)OCc2c1cc1n(c2=O)Cc2c-1nc1cc3c(cc1c2CNC(C)=O)OCO3 [Compound 12b] and report it.
4
